molecular target: Y641N EZH2 (Homo sapiens, UniProt Q15910, Y641N); assay: Y641N EZH2 assay: as EZH2 assay, with reconstituted H3K27Me2 oligonucleosomes as substrate; assay type: biochemical; settings: Y641N EZH2 IC50, Y641N mutant EZH2, H3K27Me2 oligonucleosome substrate
Sequence (Q15910 whole entry Y641N): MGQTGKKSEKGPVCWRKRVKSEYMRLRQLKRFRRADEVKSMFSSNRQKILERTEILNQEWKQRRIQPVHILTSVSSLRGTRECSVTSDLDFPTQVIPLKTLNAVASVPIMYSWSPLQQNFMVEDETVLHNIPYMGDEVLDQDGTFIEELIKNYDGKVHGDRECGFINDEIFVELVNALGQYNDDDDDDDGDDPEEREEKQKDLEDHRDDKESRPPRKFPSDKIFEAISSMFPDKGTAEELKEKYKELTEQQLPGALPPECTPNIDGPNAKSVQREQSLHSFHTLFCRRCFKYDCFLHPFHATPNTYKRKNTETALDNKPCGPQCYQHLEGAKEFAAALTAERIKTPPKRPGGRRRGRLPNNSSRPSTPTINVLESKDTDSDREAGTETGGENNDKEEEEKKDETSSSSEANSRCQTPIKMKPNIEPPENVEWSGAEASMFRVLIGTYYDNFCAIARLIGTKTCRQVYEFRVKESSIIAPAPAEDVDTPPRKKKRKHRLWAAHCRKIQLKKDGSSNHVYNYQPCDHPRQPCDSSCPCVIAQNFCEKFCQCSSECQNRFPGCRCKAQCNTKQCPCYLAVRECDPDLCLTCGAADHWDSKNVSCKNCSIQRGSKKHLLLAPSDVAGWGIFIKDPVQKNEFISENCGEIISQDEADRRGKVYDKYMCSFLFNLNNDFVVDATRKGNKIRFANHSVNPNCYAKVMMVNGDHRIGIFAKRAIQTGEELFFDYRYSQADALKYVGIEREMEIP
Sequence (O75530 whole entry partner): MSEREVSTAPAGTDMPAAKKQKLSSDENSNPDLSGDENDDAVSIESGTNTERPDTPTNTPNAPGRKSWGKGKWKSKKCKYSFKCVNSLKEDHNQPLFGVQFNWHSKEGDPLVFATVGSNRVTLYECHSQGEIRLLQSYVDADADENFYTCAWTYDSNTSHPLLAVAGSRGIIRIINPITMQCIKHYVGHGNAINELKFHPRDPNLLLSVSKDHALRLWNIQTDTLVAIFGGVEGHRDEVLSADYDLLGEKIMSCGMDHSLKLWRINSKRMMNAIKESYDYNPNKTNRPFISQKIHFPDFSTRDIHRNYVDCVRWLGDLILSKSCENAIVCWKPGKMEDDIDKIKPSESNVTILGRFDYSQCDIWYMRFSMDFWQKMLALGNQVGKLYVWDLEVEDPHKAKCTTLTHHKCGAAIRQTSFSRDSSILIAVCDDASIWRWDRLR
Sequence (Q15022 whole entry partner): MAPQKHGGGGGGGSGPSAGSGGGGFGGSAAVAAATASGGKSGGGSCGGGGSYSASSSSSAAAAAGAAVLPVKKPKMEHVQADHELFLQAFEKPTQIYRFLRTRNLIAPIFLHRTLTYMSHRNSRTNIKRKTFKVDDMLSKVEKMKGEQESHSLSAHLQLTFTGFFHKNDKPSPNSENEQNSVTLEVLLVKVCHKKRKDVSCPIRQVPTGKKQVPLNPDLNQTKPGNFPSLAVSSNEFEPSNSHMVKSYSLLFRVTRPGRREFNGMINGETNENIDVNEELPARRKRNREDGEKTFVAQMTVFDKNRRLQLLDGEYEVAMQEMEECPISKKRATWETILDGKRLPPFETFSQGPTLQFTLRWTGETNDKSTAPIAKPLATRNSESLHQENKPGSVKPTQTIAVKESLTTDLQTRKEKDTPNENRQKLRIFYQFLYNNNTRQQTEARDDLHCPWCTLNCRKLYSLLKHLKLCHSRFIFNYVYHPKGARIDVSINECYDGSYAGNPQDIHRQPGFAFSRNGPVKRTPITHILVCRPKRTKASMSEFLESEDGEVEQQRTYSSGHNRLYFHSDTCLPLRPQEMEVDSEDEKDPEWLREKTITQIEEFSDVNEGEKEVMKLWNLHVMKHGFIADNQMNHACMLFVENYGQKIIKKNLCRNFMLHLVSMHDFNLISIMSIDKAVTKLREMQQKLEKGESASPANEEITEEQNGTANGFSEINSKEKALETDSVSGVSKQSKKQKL
pIC50: −log10 of the molar value.
Readout: pIC50

Molecule	Readout	Experimental Result
CCOc1cc(C)[nH]c(=O)c1CNC(=O)c1c(C)n(C(C)c2ccccc2)c2cnccc12 (racemic) [Compound 255]	pIC50	5.00 to 6.00
COCC(C)n1c(C)c(C(=O)NCc2c(OC)cc(C)[nH]c2=O)c2ccc(C(F)(F)F)nc21 (racemic) [Compound 309]	pIC50	5.00 to 6.00
Cc1cc(C)c(CNC(=O)c2c(C)n(C(C)c3cccc(C#N)c3)c3ccccc23)c(=O)[nH]1 (stereo not shown) [Compound 187]	pIC50	6.00 to 7.00
Cc1cc(C)c(CNC(=O)c2c(C)n([C@H](C)c3ccccc3)c3nc(N4CCCC4)ncc23)c(O)n1 [Compound 142]	pIC50	5.00 to 6.00
COCC(C)n1c(C)c(C(=O)NCc2c(OC)cc(C)[nH]c2=O)c2ccccc21 (stereo not shown) [Compound 219]	pIC50	> 7.00
Cc1cc(C)c(CNC(=O)c2c(C)n(Cc3ccccc3)c3ccccc23)c(O)n1 [Compound 119]	pIC50	6.00 to 7.00
Cc1cc(C)c(CNC(=O)c2c(C)n(C(C)C3CCN(CC(C)(C)O)CC3)c3ccccc23)c(=O)[nH]1 (single isomer, unassigned) [Compound 369]	pIC50	> 7.00
